target: purified human myeloperoxidase (Homo sapiens); assay: Taurine chloramine/TMB assay of HOCl production by purified myeloperoxidase with test compounds; format: biochemical; settings: HOCl generated by myeloperoxidase in presence of 10 μM test compounds (DMSO 0.1%); stopped after five minutes with catalase; None = 56.2 ± 2.1
test_readout: [HOCl] (µM)
Report only the number, with the unit µM understood.

{"compound": "Nc1ccc(Br)cc1", "[HOCl] (µM)": 2.5}
{"compound": "C[S+](C)[O-] [DMSO, dimethylsulphoxide]", "[HOCl] (µM)": 52.8}
{"compound": "COc1ccc(OC)cc1", "[HOCl] (µM)": 15.2}
{"compound": "Nc1ccc(S(=O)(=O)c2ccc(N)cc2)cc1", "[HOCl] (µM)": 1.8}

--- query ---
According to the records, this compound "N[C@@H](Cc1ccc(O)cc1)C(=O)O" displays [HOCl] of 107.0

----------
target: MPO (Homo sapiens, UniProt P05164); experiment: MPO taurine chloramine/TMB assay with catalase stop (Example 5); type: biochemical; settings: in the absence of tyrosine
test_readout: IC50 (µM)
// return numeric value only (unit: µM, not printed)

Log: MPO (Homo sapiens, UniProt P05164), molecule Nc1ccc(S(=O)(=O)c2ccc(N)cc2)cc1 [Dapsone] , IC50 = 0.257

----------
Target: MPO (Homo sapiens, UniProt P05164)
Sequence (P05164 49-745): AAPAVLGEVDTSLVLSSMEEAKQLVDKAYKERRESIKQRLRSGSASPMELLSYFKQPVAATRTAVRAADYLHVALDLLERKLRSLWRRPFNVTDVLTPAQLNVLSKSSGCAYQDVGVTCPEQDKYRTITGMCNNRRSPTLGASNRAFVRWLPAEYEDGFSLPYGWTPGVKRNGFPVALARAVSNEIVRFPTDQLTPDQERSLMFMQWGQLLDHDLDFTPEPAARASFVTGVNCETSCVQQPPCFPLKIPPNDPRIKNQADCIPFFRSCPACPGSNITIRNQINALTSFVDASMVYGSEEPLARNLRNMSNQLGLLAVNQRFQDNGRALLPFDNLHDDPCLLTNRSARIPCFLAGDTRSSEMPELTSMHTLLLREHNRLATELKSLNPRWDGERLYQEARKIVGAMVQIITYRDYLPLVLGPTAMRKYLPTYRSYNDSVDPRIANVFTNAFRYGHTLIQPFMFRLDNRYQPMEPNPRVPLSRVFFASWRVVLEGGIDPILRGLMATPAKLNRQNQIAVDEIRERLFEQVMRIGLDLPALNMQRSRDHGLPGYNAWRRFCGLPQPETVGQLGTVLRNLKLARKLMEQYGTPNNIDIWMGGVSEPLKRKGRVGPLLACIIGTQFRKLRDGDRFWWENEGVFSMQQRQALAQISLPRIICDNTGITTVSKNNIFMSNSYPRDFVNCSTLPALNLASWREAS
Test: MPO taurine chloramine/TMB assay with catalase stop (Example 5)
Format: biochemical
Details: in the presence of 8 μM tyrosine
test_readout: IC50 (µM)
Please give a number only; it is taken to be in µM.

Recorded result, "Nc1ccc(S(=O)(=O)c2ccc(N)cc2)cc1" , IC50: 7.12

# credit: patent US7108997B2
